METHOD: Tmax in HIV-1 infected patient at 500 mg, po bid on day 10 coadministered with 300 mg, po bid zidovudine by LC-MS/MS analysis
Type: ADME, organism-based
EXPERIMENTAL CONTEXT: human, in vivo
QUANTITY MEASURED: Tmax (h)
One number for each entry, in h.

Request: // fetch Tmax given entry Nc1nc(N)c2ncn([C@H]3CO[C@@H](CO)O3)c2n1 [AMDOXOVIR]
Result: 2.5

---

METHOD: Half life in HIV-1 infected patient at 500 mg, po bid on day 10 by LC-MS/MS analysis
Type: ADME, organism-based
EXPERIMENTAL CONTEXT: human, in vivo
QUANTITY MEASURED: half-life (h)
One number for each entry, in h.

Request: // fetch half-life given entry Nc1nc(N)c2ncn([C@H]3CO[C@@H](CO)O3)c2n1
Result: 1.4
